system: BGC-823; test: Cytotoxicity against human BGC823 cells after 48 hrs by MTT assay; type: functional, cell-based; conditions: BGC-823, 48 h
quantity.measured: pIC50
A value of pIC50 is the negative decimal logarithm of a concentration given in moles per litre.

// solved cases for pIC50 follow
molecule	pIC50
COc1ccc2cc3[n+](cc2c1OCCOCCOCCN1CCOCC1)CCc1cc2c(cc1-3)OCO2	4.96
COc1ccc2cc3[n+](cc2c1O)CCc1cc2c(cc1-3)OCO2 [BERBERRUBINE CHLORIDE]	5.12
COc1ccc2cc3[n+](cc2c1OCCOCCN1CCOCC1)CCc1cc2c(cc1-3)OCO2	4.92

Continue with the molecule presented below.
Bench note: what pIC50 did COc1ccc2cc3[n+](cc2c1OCCN1CCCCC1)CCc1cc2c(cc1-3)OCO2 show? 4.99
